human GLP-1 receptor (human, UniProt P43220): reported log10 CRE luciferase EC50, 0% HSA for various substances.
Hey, these are logged values: log10 of CRE luciferase EC50, 0% HSA, nM being the unit before logging.

{"SUBSTANCE": "[Aib2,Gly16,Lys17,Ala18,Arg20,Glu21,Leu27,Glu28,Lys29]-Glucagonyl-(1-29)-Aib-Lys-Glu-Phe-Leu amide (peptide)", "log10 CRE luciferase EC50, 0% HSA": 0.21}
{"SUBSTANCE": "[Aib2,His3,Glu15,Glu16,Glu17,Ala18,Lys20,Glu21,Ile23,Ala24,Leu27,Glu28,Lys29]-Glucagonyl-(1-29)-Aib-Lys-Glu-Phe-Leu amide (peptide)", "log10 CRE luciferase EC50, 0% HSA": -1.10}
{"SUBSTANCE": "[Glu15,Glu16,Lys17,Lys18,Lys20,Glu21,Ile23,Ala24,Leu27,Glu28,Lys29]-Glucagonyl-(1-29)-Aib-Lys-Glu-Phe-Leu amide (peptide)", "log10 CRE luciferase EC50, 0% HSA": 0.07}
{"SUBSTANCE": "[Lys17,Ala18,Arg20,Glu21,Leu27,Glu28,Lys29]-Glucagonyl-(1-29)-Aib-Lys-Glu-Phe-Leu amide (peptide)", "log10 CRE luciferase EC50, 0% HSA": -0.36}

# map each substance to its log10 CRE luciferase EC50, 0% HSA
1. [Aib2,Gly16,Lys17,Arg20,Glu21,Leu27,Glu28,Lys29]-Glucagonyl-(1-29)-Aib-Lys-Glu-Phe-Leu amide (peptide)
2. [Glu15,Glu16,Gln17,Ala18,Lys20,Glu21,Ile23,Ala24,Leu27,Glu28,Lys29]-Glucagonyl-(1-29)-Aib-Lys-Glu-Phe-Leu amide (peptide)
3. [Aib2,Lys17,Ala18,Arg20,Glu21,Leu27,Glu28,Lys29]-Glucagonyl-(1-29)-Aib-Lys-Glu-Phe-Leu amide (peptide)
4. [Glu15,Glu16,Lys17,Ala18,Lys20,Glu21,Ile23,Ala24,Leu27,Glu28,Lys29]-Glucagonyl-(1-29)-Aib-Lys-Glu-Phe-Leu amide (peptide)

1. -0.23
2. -0.93
3. -0.41
4. -1.07

====

ASSAY DETAILS: in vivo
ASSAY SETUP: female, Göttingen, minipig, in vivo, iv, 5 nmol/kg
Where no end group is shown, it is not given here.
PROPERTY LABEL: clearance (mL/h/kg)
Give bare numbers, in mL/h/kg.

{"SUBSTANCE": "HGEGTFTSDVSSYLEGEAVKEFIAWLVEKVKEHL-NH2 [Compound 78]", "QUANTITATIVE READOUT": 4.45}

Consider the additional substance presented here.
Lab note: HGEGTFTSDVSSYLEGEAVKEFIAWLVEKVKEFL-NH2 [Compound 76] gave clearance of 1.06

====

System: Mouse monocyte/macrophage cell line, RAW 264.7
ASSAY DETAILS: Cholesterol efflux assay (3H-cholesterol, macrophage cell line)
Format: cell-based
ASSAY SETUP: read-out: 4 h Cholesterol Efflux EC50; RAW 264.7, 4 hrs incubation, 0.1% human serum albumin, ABCA1-mediated efflux (CPT-cAMP induced minus non-induced)
Where no end group is shown, it is not given here.
PROPERTY LABEL: pEC50
Give bare numbers, as −log10 of the molar value.

# map each substance to its pEC50
1. HAEGTFTSDLSKQMEEEAVREFIEWLKNKVLEFL-NH2 [Compound 69]
2. HAQGTFTSDYSKYLDSKAAREFVQWLLEKVKEFL-NH2 [Compound 68]

[6.39, 6.57]
